The measurements presented in this section are drawn from patent US12129221B2.

Kindly supply the reported half-life values for the records listed here.
test: Liver microsome stability, human; format: in vitro ADME; conditions: liver microsomes, comparison table with WO2016/101885 compounds, read-out: Human Liver Microsome T1/2
Please respond with the number in h and leave the unit unwritten.

## Task Query (compound): CCC(C)(C)C(=O)N(O)Cc1ccc(F)c(F)c1F ; field requested: half-life
## Result 0.6

## Task Query (compound): CCC(C)(C)C(=O)N(O)Cc1ccc(F)cc1F ; field requested: half-life
## Result 3.3

## Task Query (compound): CCC(C)(C)C(=O)N(O)Cc1cc(F)cc(F)c1F ; field requested: half-life
## Result 1.12

## Task Query (compound): CCC(C)(C)C(=O)N(O)Cc1cc(F)c(F)c(F)c1 ; field requested: half-life
## Result 1.07

## Task Query (compound): CCC(C)(C)C(=O)N(O)Cc1ccc(F)cc1 ; field requested: half-life
## Result 2.97

## Task Query (compound): CCC(C)(C)C(=O)N(O)Cc1ccc(F)c(F)c1 ; field requested: half-life
## Result 1.78
